All values here come from ChEMBL document CHEMBL4513216.

Assign INHIBITION to each entry below.
- Tested on: Plasmodium berghei
- assay-explanation: Screen against P. berghei liver stage (PbLuc), transformed with Luciferase, at 10uM
- Assay type: functional, HepG2
- conditions-used: tested at 10 uM
In all, about 69,000 compounds went through this assay and about 8,600 (12%) showed an effect of 50% or more. The full list was thinned out, with strong results kept by preference.
The response must be a number in % with no trailing unit.

Give the measured INHIBITION of Fc1ccc(OCCCN2CCOC(Cn3cncn3)C2)cc1 (configuration not stated) .
19.4

Give the measured INHIBITION of Clc1ccc(CN(CCN2CCOCC2)Cc2cccnc2)c(Cl)c1 .
-49.4

Give the measured INHIBITION of O=S(=O)(C1CC1)N1CC[C@@H]2[C@@H]1CCN2Cc1cccs1 .
33

Give the measured INHIBITION of O=C1OCCN1CCSc1nnnn1C1CCOCC1 .
54.5

Give the measured INHIBITION of CC(CO)NS(=O)(=O)c1cccc(C(C)C)c1 (configuration not stated) .
26.6

Give the measured INHIBITION of CCCc1ncc(CNC2(c3ccc(Cl)cc3)CC2)cn1 .
44.8

Give the measured INHIBITION of CCOc1ccc(CNC(C)c2cccc(S(=O)(=O)NC)c2)cc1 (configuration not stated) .
46.6

Give the measured INHIBITION of Cc1nc(CNC(C)c2cccc(S(=O)(=O)N(C)C)c2)no1 (configuration not stated) .
39.7

Give the measured INHIBITION of CNS(=O)(=O)c1cccc(C(C)NCc2ccc(F)c(F)c2)c1 (configuration not stated) .
59.4

Give the measured INHIBITION of O=C1OCCN1CCSc1nnnn1CC(F)(F)F .
42.4

Give the measured INHIBITION of CC(NCc1ccc(F)cc1)c1ccc(S(C)(=O)=O)cc1 (configuration not stated) .
25.5

Give the measured INHIBITION of CNS(=O)(=O)c1cccc(C(C)NCc2ccc(F)cc2F)c1 (configuration not stated) .
65.4
